Test system: strain C, fluoroquinolone-resistant clinical isolate of Streptococcus pneumoniae
Assay: In vitro antibacterial activity (MIC), microdilution broth method (NCCLS), strain C
Type: cell-based
Conditions: read-out: In vitro Antibacterial Activity MIC, C
I'd appreciate it if you could supply MIC values for the items below.

Please report MIC for every entry that follows.
1. COc1ccc(C2=NOC3CN(c4c(F)cc5c(=O)c(C(=O)O)cn6c5c4OC[C@@H]6C)CC23)cc1 (stereo partly shown)
2. O=C(O)c1cn(C2CC2)c2cc(N3CC4ON=C(c5cccnc5)C4C3)c(F)cc2c1=O (stereo not shown)
3. O=C(O)c1cn(-c2ccc(F)cc2F)c2nc(N3CC4ON=C(c5cccnc5)C4C3)c(F)cc2c1=O (stereo not shown)
4. O=C(O)c1cn(-c2ccc(F)cc2F)c2nc(N3CC4ON=C(c5ccc(C(F)(F)F)nc5)C4C3)c(F)cc2c1=O (stereo not shown)

A.
["4 µg/mL", "4 µg/mL", "2 µg/mL", "> 16 µg/mL"]

Cited source: patent US7902227B2
